These data points were gathered from patent US8093231B2.

- System: MX-1 (breast carcinoma)
- assay_name: Cytotoxicity/growth inhibition assay, MX-1
- Type: cell-based, human
- measurement_parameters: MX-1 cells, 3 days culture, CellTiter-Glo, 0.1-200 μM tested; read-out: IC50 (MX-1)
pIC50: −log10 of the molar value.
Please note: 1.0 applies when pIC50 is 5 or greater, and 0.0 applies otherwise.

Ask: Record O=C(CCS(=O)(=O)CCOP(=O)(N(CCCl)CCCl)N(CCCl)CCCl)NC1CC1 [Compound 55A] ; criterion: pIC50 no lower than 5. Met?
Result: 0.0

Consider now this further compound.
Ask: Record O=C(CS(=O)(=O)CCOP(=O)(N(CCCl)CCCl)N(CCCl)CCCl)NC(Cc1ccccc1)C(=O)O (centres unmarked) [Compound 26A] ; criterion: pIC50 no lower than 5. Met?
Result: 0.0
